- Tested on: LZK
- Construct: gene MAP3K13
- study conditions: concentration: 1 μM,replicates: in singlicate; n = 1;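 further: KINOMEscan kinase panel screen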
measured parameter: %Inh (%)

molecule	tested system	measured parameter	display unit	quantitative readout
Cc1ccn2nc(-c3ccc(F)cc3)c(-c3ccncc3)c2c1.Cl [GW457859]	LZK	%Inh	%	44
Cn1ccc2ncnc(Oc3ccc(NC(=O)Nc4cccc(C(F)(F)F)c4)c(F)c3)c21	LZK	%Inh	%	0
O=c1[nH]cc(-c2ccc(O)cc2)c2sc(-c3ccncc3)cc12 [GSK1033723]	LZK	%Inh	%	4
CS(=O)(=O)Nc1ccc(-c2ccnc3[nH]ccc23)cc1 [GSK993273]	LZK	%Inh	%	8
C[C@@H]1CNc2c(sc3ccc4nc(-c5ccncc5)ccc4c23)C(=O)N1	LZK	%Inh	%	0

* * *

This listing pairs molecules with measured %Inh.
- Tested on: DYRK1B
- study conditions: concentration: 1 μM,replicates: in singlicate; n = 1

chemical smiles	%Inh
Cc1ccn2nc(-c3ccc(F)cc3)c(-c3ccncc3)c2c1.Cl	10%
CCOC(=O)N1CCC(n2cnc(-c3ccc(F)cc3)c2-c2ccnc(N)n2)CC1	30%
CN(c1ccccc1CNc1nc(Nc2ccc3c(c2)CC(=O)N3)ncc1C(F)(F)F)S(C)(=O)=O	30%

* * *

- Test system: LRRK2
- study conditions: concentration: 1 μM,replicates: in singlicate; n = 1

molecule	tested system	%Inh (%)
Cl.c1ccc(Oc2ccc(Nc3ccnc4cc(-c5ccc(CN6CCNCC6)o5)ccc34)cc2)nc1	LRRK2	4
COc1cc2ncn(-c3cc(OCC4CCCCC4)c(C(N)=O)s3)c2cc1OC	LRRK2	20
COc1ccc(Nc2nccc(N3CCC(NC(=O)c4cccc(C#N)c4)C3)n2)cc1 (stereo not drawn)	LRRK2	31
O=c1[nH]cc(-c2ccc(O)cc2)c2sc(-c3ccncc3)cc12	LRRK2	0
COc1cccc(OC)c1C(=O)Nc1cccc(-c2nn3ccccc3c2-c2ccnc(Nc3cccc(F)c3)n2)c1	LRRK2	0
CN(c1ccc2c(c1)nc(NCc1ccc(F)cc1)n2C)c1ccnc(Nc2ccc(CS(C)(=O)=O)cc2)n1.Cl	LRRK2	0
O=C(Nc1ccccc1)c1cccc(Oc2ccc3nccn3n2)c1	LRRK2	0
Cl.Cl.NC[C@H](CC1CCCCC1)NC(=O)c1ccc(-c2ccnc3[nH]ccc23)s1	LRRK2	49
Cn1ccc2ncnc(Oc3ccc(NC(=O)Nc4cc(C(C)(C)C)on4)c(Cl)c3)c21	LRRK2	3
c1ccc(Oc2ccc(Nc3ccnc4ccc(-c5ccccn5)cc34)cc2)cc1	LRRK2	5
Cn1ccc2ncnc(Oc3ccc(NC(=O)Nc4cncc(C(F)(F)F)c4)c(Cl)c3)c21	LRRK2	0
O=C(Nc1cccc(Oc2ccc3nccn3n2)c1)Nc1cccc(C(F)(F)F)c1	LRRK2	21
CN(c1ccccc1CNc1nc(Nc2ccc3c(c2)CC(=O)N3)ncc1C(F)(F)F)S(C)(=O)=O	LRRK2	20
COC(=O)Nc1nc2cc(Oc3ccc(NC(=O)Nc4cc(C(F)(F)F)ccc4Cl)cc3)ccc2[nH]1.Cl	LRRK2	11
COc1cc2nccc(Nc3ccc(Oc4ccccc4)cc3)c2cc1OC.Cl	LRRK2	0
OCCn1cc(-c2cnc3nnn(Cc4ccc5ncccc5c4)c3n2)cn1	LRRK2	0
Cc1nnc(-c2ccc3occ(-c4ccc(S(C)=O)cc4)c3n2)o1 (stereo not drawn)	LRRK2	0
O=C(NOCC1CC1)c1cc(Br)c(F)c(F)c1Nc1ccc(I)cc1Cl	LRRK2	0
C[C@@H]1CCN(C(=O)N2CCCC2)C[C@@H]1N(C)c1ncnc2[nH]ccc12	LRRK2	0
O=C(Nc1n[nH]c2cc(-c3ccco3)ccc12)C1CC1	LRRK2	0
CCNCC(Cc1ccccc1)NC(=O)c1cc(Br)c(-c2ccnc3[nH]ccc23)s1.Cl.Cl (stereo not drawn)	LRRK2	0

* * *

- Test system: CDK5
- study conditions: concentration: 1 μM,replicates: in singlicate; n = 1

chemical smiles	display unit	%Inh
Cc1ccc2c(-c3ccnc(Nc4ccc(C(F)(F)F)cc4)n3)cnn2n1	%	0
C[C@@H]1CNc2c(sc3ccc4nc(-c5ccc(O)cc5)ccc4c23)C(=O)N1	%	25
O=C(Nc1ccc(Oc2ccc3nc(NC(=O)C4CC4)cn3n2)c(F)c1)c1cccn(-c2ccccc2)c1=O	%	0

* * *

- Test system: RPS6KA4(Kin.Dom.2-C-terminal)
- study conditions: concentration: 1 μM,replicates: in singlicate; n = 1

molecule	display unit	%Inh
Cc1n[nH]c2cc(Nc3ccnc(Nc4cccc(CN5CCOCC5)c4)n3)ccc12 [GW682569]	%	0
C[C@@H]1CNc2c(sc3ccc4nc(-c5ccc(O)cc5)ccc4c23)C(=O)N1	%	98.8
CS(=O)c1ccc(-c2coc3ccc(-c4n[nH]c(=O)o4)cc23)cc1 (stereo not shown)	%	85
CSc1nccc(-c2c(-c3ccc(F)cc3)ncn2CCCN2CCOCC2)n1.Cl [SB-217146]	%	0
C[C@@H](Oc1cc(-n2cnc3cc(-c4cnn(C)c4)ccc32)sc1C(N)=O)c1ccccc1Cl [GSK580432]	%	0
CCCC(=O)Nc1n[nH]c2ncccc12 [SB-601436]	%	3
C[C@@H](Oc1cc(-n2cnc3cc(-c4ccncc4)ccc32)sc1C(N)=O)c1ccccc1Cl [GSK479719]	%	0
Cc1ccn2nc(-c3ccc(F)cc3)c(-c3ccncc3)c2c1.Cl [GW457859]	%	0
C[C@@H]1CNc2c(sc3ccc4nc(-c5ccncc5)ccc4c23)C(=O)N1	%	98.7
COc1cc2nccc(Nc3ccc(Oc4ccccc4)cc3)c2cc1OC.Cl [GI261656]	%	0
Cn1ccc2ncnc(Oc3ccc(NC(=O)Nc4cccc(C(F)(F)F)c4)c(F)c3)c21	%	0
CCNCC(Cc1ccccc1)NC(=O)c1cc(Br)c(-c2ccnc3[nH]ccc23)s1.Cl.Cl (stereo not shown) [GSK1383280]	%	21
C[C@@H](Oc1cc(-n2cnc3ccc(-c4ccncc4)cc32)sc1C(N)=O)c1ccccc1Cl [GSK483724]	%	0
O=C(Nc1cccc(C(F)(F)F)c1)c1cccc(Oc2ccc3nccn3n2)c1	%	0
O=C(Nc1ccccc1)c1cccc(Oc2ccc3nccn3n2)c1	%	10
Cc1ccc(CC(=O)N2CCc3cc(-c4cn(C)c5ncnc(N)c45)ccc32)cc1 [GSK2634758]	%	0
CS(=O)(=O)Nc1ccc(-c2ccnc3[nH]ccc23)cc1 [GSK993273]	%	94.1
CC(=O)Nc1ccc(-c2cc3ncnc(SCC(=O)O)c3s2)cc1	%	47
Cn1ccc2ncnc(Oc3ccc(NC(=O)Nc4ccnc(C(F)(F)F)c4)c(Cl)c3)c21	%	7
O=C1NCCc2[nH]c(-c3ccncc3)cc21	%	92.7
CC(=O)c1c(-c2ccncc2)[nH]c(-c2ccncc2)c1C [GW493036]	%	0
CS(=O)(=O)c1cccc(CNc2nc(Nc3ccc4c(c3)[C@@H]3C[C@@H]4CNC3=O)ncc2C(F)(F)F)c1	%	0
Nc1nccc(-c2ccc3c(N)n[nH]c3c2)n1 [GSK1034945]	%	81
Cn1ccc2ncnc(Oc3ccc(NC(=O)Nc4cc(C(C)(C)C)on4)c(Cl)c3)c21	%	13
CC(=O)Nc1nc2cnc(Nc3cc(NC(=O)c4cccc(CC(C)(C)C#N)c4)ccc3C)nc2s1	%	2

* * *

This listing pairs compounds with measured %Inh.
- Test system: DYRK1A
- study conditions: concentration: 1 μM,replicates: in singlicate; n = 1

compound	%Inh / %
O=C(NOCC1CC1)c1cc(Br)c(F)c(F)c1Nc1ccc(I)cc1Cl	0
O=C(NCC1CC1)c1ccc(-c2cc(C(=O)NC3CC3)ccc2F)cc1	0
Cc1cccc2c(-c3ccncc3)c(-c3ccc(F)cc3)nn12.Cl	10
CC(=O)Nc1nc2cnc(Nc3cc(NC(=O)c4cccc(CC(C)(C)C#N)c4)ccc3C)nc2s1	0
Cc1nnc(-c2ccc3occ(-c4ccc(S(C)=O)cc4)c3n2)o1 (stereo not drawn)	0
CC(C(=O)NC1CCN(c2ccnc(Nc3ccc(F)cc3)n2)C1)c1ccc(Cl)cc1 (stereo not drawn)	10
OCCn1cc(-c2cnc3nnn(Cc4ccc5ncccc5c4)c3n2)cn1	0
Cn1ccc2ncnc(Oc3ccc(NC(=O)Nc4cccc(C(F)(F)F)c4)c(F)c3)c21	0
COc1cc2ncn(-c3cc(OCC4CCCCC4)c(C(N)=O)s3)c2cc1OC	21
O=C(Nc1cccc(C(F)(F)F)c1)c1cccc(Oc2ccc3nccn3n2)c1	5
CC(=O)Nc1ccc(-c2cc3ncnc(SCC(=O)O)c3s2)cc1	66
Cc1n[nH]c2cc(Nc3ccnc(Nc4cccc(CN5CCOCC5)c4)n3)ccc12	2
COC(=O)c1cccc(NC(=O)NC2CCN(c3ccnc(Nc4cc(OC)c(OC)c(OC)c4)n3)C2)c1 (stereo not drawn)	0
NC(=O)Nc1sc(-c2ccc(F)cc2)cc1C(N)=O	23
CCNCC(Cc1ccccc1)NC(=O)c1cc(Br)c(-c2ccnc3[nH]ccc23)s1.Cl.Cl (stereo not drawn)	37

* * *

This listing pairs compounds with measured %Inh.
- Test system: MEK2
- Construct: gene MAP2K2
- study conditions: concentration: 1 μM,replicates: in singlicate; n = 1
measured parameter: %Inh (%)

compound	measured parameter	quantitative readout
CN1CCN(CCNc2nc3cc(Oc4ccc(NC(=O)Nc5cc(C(F)(F)F)ccc5F)cc4)ccc3[nH]2)CC1.Cl.Cl [GW768504]	%Inh	31
OCCn1cc(-c2cnc3nnn(Cc4ccc5ncccc5c4)c3n2)cn1	%Inh	0
O=C(Nc1n[nH]c2cc(-c3ccco3)ccc12)C1CC1 [SB-737447]	%Inh	0
Cn1ccc2ncnc(Oc3ccc(NC(=O)Nc4cccc(C(F)(F)F)c4)c(Cl)c3)c21	%Inh	25
O=c1[nH]cc(-c2ccc(O)cc2)c2sc(-c3ccncc3)cc12 [GSK1033723]	%Inh	0
Cn1ccc2ncnc(Oc3ccc(NC(=O)Nc4cc(C(C)(C)C)on4)c(Cl)c3)c21	%Inh	41
Cc1ccc(C(=O)Nc2ccc(Oc3ccc4nc(NC(=O)C5CC5)cn4c3)c(F)c2)c(=O)n1-c1ccccc1	%Inh	29
NC(=O)c1ccc(-c2cc3ncnc(SCC(=O)O)c3s2)cc1	%Inh	34
c1ccc(Oc2ccc(Nc3ccnc4ccc(-c5ccccn5)cc34)cc2)cc1 [GW407034]	%Inh	66
COc1cc2ncn(-c3cc(OCC4CCCCC4)c(C(N)=O)s3)c2cc1OC [GSK204559]	%Inh	0
CSc1nccc(-c2c(-c3ccc(F)cc3)ncn2CCCN2CCOCC2)n1.Cl [SB-217146]	%Inh	43
C[C@@H]1CNc2c(sc3ccc4nc(-c5ccncc5)ccc4c23)C(=O)N1	%Inh	0
CCn1c(-c2nonc2N)nc2cncc(Br)c21 [SB-738004]	%Inh	29
